assay.system: tyrosinase (Mus musculus, UniProt P11344)
Construct: the supernatant obtained constituted the cell lysate used as the source of tyrosinase in the enzymatic test; endogenous in cells; detergent lysate supernatant
Sequence (P11344 19-533): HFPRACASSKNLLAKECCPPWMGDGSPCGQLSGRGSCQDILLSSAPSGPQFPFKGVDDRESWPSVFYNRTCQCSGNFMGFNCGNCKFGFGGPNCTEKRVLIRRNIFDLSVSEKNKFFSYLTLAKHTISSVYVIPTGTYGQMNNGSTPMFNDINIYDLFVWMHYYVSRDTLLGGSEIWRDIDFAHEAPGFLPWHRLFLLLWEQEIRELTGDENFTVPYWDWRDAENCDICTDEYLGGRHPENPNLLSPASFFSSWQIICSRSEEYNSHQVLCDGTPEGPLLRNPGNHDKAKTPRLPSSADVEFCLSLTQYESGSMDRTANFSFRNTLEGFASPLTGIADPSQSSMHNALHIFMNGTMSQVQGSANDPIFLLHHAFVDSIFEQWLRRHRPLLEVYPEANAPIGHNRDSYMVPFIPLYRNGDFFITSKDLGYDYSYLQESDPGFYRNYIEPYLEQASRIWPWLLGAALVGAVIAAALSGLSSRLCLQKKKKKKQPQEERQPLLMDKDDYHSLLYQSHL
protocol.notes: Tyrosinase activity inhibition test (B16F1 cell lysate, L-tyrosine/MBTH, 520 nm)
conditions.used: lysate of B16F1 cells, 6 hours incubation at 37° C.; read-out: Tyrosine hydroxylase/Dopa oxidase IC50
experimental.readout: IC50 (µM)

a = CCCCc1ccc(O)cc1O [4-butylresorcinol (Rucinol), 4-butylresorcinol, reference compound]
b = Cc1ccc(S(=O)(=O)N2CCC(c3ccc(O)cc3O)CC2)cc1
Compare IC50: is it lower for a or for b ? Provide the label of your selected option as the answer.
b
(b: 1.5 µM, a: 3 µM)
